Reference source: ChEMBL document CHEMBL4308865

# half-life per entry
assay: Half life in rat at 0.2 mg/kg, iv; assay type: ADME, organism-based; settings: in vivo
assay readout: half-life (min)

[[record]]
smiles_data = "Cc1cc(OC2COC2)cc(C(=O)Nc2ccc(F)cn2)n1"
endpoint_result = 28

[[record]]
smiles_data = "Cc1cc(O[C@@H]2CCOC2)cc(C(=O)Nc2nc(C)cs2)n1"
endpoint_result = 63

[[record]]
smiles_data = "Cc1cc(O[C@@H]2CCOC2)cc(C(=O)Nc2ccc(F)cn2)n1"
endpoint_result = 46


* * *

Each entry below lists one item and its recorded Efficacy value.
biological target: Metabotropic glutamate receptor 5 (Homo sapiens, UniProt P41594); experiment: Negative allosteric modulation of human mGlu5 receptor assessed as inhibition of glutamate induced-calcium mobilization relative to glutamate; type: functional
Sequence (P41594 21-1212 limits assumed): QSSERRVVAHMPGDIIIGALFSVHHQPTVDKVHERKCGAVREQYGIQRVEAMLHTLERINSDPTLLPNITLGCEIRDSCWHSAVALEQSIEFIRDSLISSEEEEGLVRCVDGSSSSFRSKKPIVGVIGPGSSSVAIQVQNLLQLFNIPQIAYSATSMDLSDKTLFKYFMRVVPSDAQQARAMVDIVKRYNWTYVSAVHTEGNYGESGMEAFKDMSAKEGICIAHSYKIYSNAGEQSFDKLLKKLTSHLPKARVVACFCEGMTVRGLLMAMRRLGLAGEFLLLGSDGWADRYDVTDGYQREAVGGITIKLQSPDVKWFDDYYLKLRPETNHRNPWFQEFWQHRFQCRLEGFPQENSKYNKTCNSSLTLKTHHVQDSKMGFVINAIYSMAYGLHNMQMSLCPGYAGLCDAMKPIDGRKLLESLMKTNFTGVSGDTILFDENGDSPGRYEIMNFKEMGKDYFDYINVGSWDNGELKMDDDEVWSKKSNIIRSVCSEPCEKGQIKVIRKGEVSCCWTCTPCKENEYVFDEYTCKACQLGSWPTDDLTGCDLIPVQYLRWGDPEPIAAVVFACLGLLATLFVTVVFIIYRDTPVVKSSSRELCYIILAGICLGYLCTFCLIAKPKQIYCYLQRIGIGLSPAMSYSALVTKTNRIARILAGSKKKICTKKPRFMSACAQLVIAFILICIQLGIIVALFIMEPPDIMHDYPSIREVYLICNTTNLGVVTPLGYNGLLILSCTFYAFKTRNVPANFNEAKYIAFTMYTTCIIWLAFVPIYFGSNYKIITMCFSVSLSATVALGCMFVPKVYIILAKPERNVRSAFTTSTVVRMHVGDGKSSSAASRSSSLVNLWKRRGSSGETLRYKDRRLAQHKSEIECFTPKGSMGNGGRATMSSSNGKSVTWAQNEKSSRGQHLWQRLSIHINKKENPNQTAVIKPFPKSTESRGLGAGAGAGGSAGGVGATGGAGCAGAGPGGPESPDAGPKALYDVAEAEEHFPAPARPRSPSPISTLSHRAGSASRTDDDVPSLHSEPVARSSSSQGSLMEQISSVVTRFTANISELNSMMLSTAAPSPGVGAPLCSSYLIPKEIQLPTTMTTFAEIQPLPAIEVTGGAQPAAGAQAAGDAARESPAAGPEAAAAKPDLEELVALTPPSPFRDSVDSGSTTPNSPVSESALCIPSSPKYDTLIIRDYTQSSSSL
assay readout: Efficacy (%)

[[record]]
smiles_data = "COCOc1cc(C)nc(C(=O)Nc2ccc(F)cn2)c1"
system_tested = "Metabotropic glutamate receptor 5 (Homo sapiens, UniProt P41594)"
unit_annotation = "%"
endpoint_result = 0.1

[[record]]
smiles_data = "Cc1cc(OC2CCC2)cc(C(=O)Nc2nc(C)cs2)n1"
system_tested = "Metabotropic glutamate receptor 5 (Homo sapiens, UniProt P41594)"
unit_annotation = "%"
endpoint_result = 1.5

[[record]]
smiles_data = "Cc1cc(OCC2COC2)cc(C(=O)Nc2nc(C)cs2)n1"
system_tested = "Metabotropic glutamate receptor 5 (Homo sapiens, UniProt P41594)"
unit_annotation = "%"
endpoint_result = 1.5

[[record]]
smiles_data = "Cc1cc(OCC2COC2)cc(C(=O)Nc2ccc(F)cn2)n1"
system_tested = "Metabotropic glutamate receptor 5 (Homo sapiens, UniProt P41594)"
unit_annotation = "%"
endpoint_result = -3.4

[[record]]
smiles_data = "Cc1cc(OC2CCC2)cc(C(=O)Nc2ccc(F)cn2)n1"
system_tested = "Metabotropic glutamate receptor 5 (Homo sapiens, UniProt P41594)"
unit_annotation = "%"
endpoint_result = 1.6


* * *

target: Metabotropic glutamate receptor 5 (Homo sapiens, UniProt P41594); assay: Negative allosteric modulation of human mGlu5 receptor assessed as inhibition of glutamate induced-calcium mobilization
Sequence (P41594 whole entry): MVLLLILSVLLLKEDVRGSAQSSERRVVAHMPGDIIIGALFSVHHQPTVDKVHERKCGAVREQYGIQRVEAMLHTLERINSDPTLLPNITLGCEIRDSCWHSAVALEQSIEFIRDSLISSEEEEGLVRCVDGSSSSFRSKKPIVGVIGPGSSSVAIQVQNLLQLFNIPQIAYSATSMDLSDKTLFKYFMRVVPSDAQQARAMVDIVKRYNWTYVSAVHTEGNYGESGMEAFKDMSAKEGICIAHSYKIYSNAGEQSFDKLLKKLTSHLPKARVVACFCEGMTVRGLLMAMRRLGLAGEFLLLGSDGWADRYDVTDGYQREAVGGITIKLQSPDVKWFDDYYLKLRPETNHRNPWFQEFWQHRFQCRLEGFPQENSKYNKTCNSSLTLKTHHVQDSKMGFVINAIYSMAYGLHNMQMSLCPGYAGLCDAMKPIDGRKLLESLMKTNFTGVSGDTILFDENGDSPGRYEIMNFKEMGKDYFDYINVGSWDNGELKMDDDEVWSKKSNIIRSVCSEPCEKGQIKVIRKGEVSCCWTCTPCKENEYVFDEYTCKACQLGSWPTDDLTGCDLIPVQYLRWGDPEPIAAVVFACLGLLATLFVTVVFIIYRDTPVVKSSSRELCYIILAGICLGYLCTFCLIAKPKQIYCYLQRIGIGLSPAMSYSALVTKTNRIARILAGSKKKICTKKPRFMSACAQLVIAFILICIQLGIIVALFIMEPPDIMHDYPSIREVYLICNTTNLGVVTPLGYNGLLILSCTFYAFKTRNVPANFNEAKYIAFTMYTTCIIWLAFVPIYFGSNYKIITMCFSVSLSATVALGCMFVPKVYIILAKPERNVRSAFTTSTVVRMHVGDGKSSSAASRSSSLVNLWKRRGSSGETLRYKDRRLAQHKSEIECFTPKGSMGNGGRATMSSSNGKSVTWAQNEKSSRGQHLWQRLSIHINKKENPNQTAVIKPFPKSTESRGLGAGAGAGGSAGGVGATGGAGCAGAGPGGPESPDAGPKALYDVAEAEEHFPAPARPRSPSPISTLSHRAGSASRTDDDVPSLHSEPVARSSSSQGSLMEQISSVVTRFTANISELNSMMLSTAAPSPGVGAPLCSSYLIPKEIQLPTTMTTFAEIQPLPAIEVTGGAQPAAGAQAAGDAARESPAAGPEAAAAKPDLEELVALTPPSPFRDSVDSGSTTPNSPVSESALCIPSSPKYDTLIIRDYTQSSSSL
Form field: log10 of IC50 (one value per entry).
assay readout: log10 of IC50 (log10 of the value in nM)

[[record]]
molecule = "Cc1cc(O[C@@H]2CO[C@H](C)C2)cc(C(=O)Nc2nc(C)cs2)n1"
system_tested = "Metabotropic glutamate receptor 5 (Homo sapiens, UniProt P41594)"
assay_readout = "log10 of IC50"
endpoint_result = 2.05

[[record]]
molecule = "Cc1cc(OCC2CCO2)cc(C(=O)Nc2nc(C)cs2)n1 (stereo unspecified)"
system_tested = "Metabotropic glutamate receptor 5 (Homo sapiens, UniProt P41594)"
assay_readout = "log10 of IC50"
endpoint_result = 2.60

[[record]]
molecule = "Cc1cc(OCC2CCCO2)cc(C(=O)Nc2nc(C)cs2)n1 (stereo unspecified)"
system_tested = "Metabotropic glutamate receptor 5 (Homo sapiens, UniProt P41594)"
assay_readout = "log10 of IC50"
endpoint_result = 2.44

[[record]]
molecule = "COC[C@@H](C)Oc1cc(C)nc(C(=O)Nc2nc(C)cs2)c1"
system_tested = "Metabotropic glutamate receptor 5 (Homo sapiens, UniProt P41594)"
assay_readout = "log10 of IC50"
endpoint_result = 3.01

[[record]]
molecule = "Cc1cc(OC2CCCCC2)cc(C(=O)Nc2ccc(F)cn2)n1"
system_tested = "Metabotropic glutamate receptor 5 (Homo sapiens, UniProt P41594)"
assay_readout = "log10 of IC50"
endpoint_result = 3.53

[[record]]
molecule = "Cc1cc(O[C@H]2CO[C@H](C)C2)cc(C(=O)Nc2nc(CF)cs2)n1"
system_tested = "Metabotropic glutamate receptor 5 (Homo sapiens, UniProt P41594)"
assay_readout = "log10 of IC50"
endpoint_result = 2.26


* * *

target: Metabotropic glutamate receptor 5 (Homo sapiens, UniProt P41594); assay: Negative allosteric modulation of human mGlu5 receptor assessed as inhibition of glutamate induced-calcium mobilization relative to glutamate; type: functional
assay readout: Efficacy (%)

[[record]]
compound = "Cc1cc(OCC2CCO2)cc(C(=O)Nc2ccccn2)n1 (configuration not stated)"
assay_readout = "Efficacy"
endpoint_result = 0.5

[[record]]
compound = "Cc1cc(O[C@H]2CO[C@H](C)C2)cc(C(=O)Nc2ccc(F)cn2)n1"
assay_readout = "Efficacy"
endpoint_result = 1.3

[[record]]
compound = "Cc1cc(O[C@H]2CCOC2)cc(C(=O)Nc2ccccn2)n1"
assay_readout = "Efficacy"
endpoint_result = 1.3

[[record]]
compound = "Cc1cc(OC2CCOCC2)cc(C(=O)Nc2ccccn2)n1"
assay_readout = "Efficacy"
endpoint_result = 0.9

[[record]]
compound = "COc1cc(C)nc(C(=O)Nc2ccc(F)cn2)c1"
assay_readout = "Efficacy"
endpoint_result = 5.5

[[record]]
compound = "Cc1cc(O[C@@H]2CO[C@@H](C)C2)cc(C(=O)Nc2nc(C)cs2)n1"
assay_readout = "Efficacy"
endpoint_result = 1.7

[[record]]
compound = "Cc1cc(OC2CCCOC2)cc(C(=O)Nc2ccc(F)cn2)n1 (configuration not stated)"
assay_readout = "Efficacy"
endpoint_result = 0.2

[[record]]
compound = "Cc1cc(O[C@@H]2CO[C@H](C)C2)cc(C(=O)Nc2nc(C)cs2)n1"
assay_readout = "Efficacy"
endpoint_result = 2.1

[[record]]
compound = "Cc1cc(OCC2CCO2)cc(C(=O)Nc2ccc(F)cn2)n1 (configuration not stated)"
assay_readout = "Efficacy"
endpoint_result = -1.1

[[record]]
compound = "Cc1cc(O[C@H]2CCOC2)cc(C(=O)Nc2nc(C)cs2)n1"
assay_readout = "Efficacy"
endpoint_result = 1.4

[[record]]
compound = "COCOc1cc(C)nc(C(=O)Nc2ccccn2)c1"
assay_readout = "Efficacy"
endpoint_result = 1.1

[[record]]
compound = "Cc1cc(OC2CCCCC2)cc(C(=O)Nc2ccccn2)n1"
assay_readout = "Efficacy"
endpoint_result = 2.1

[[record]]
compound = "Cc1cc(O[C@H]2CO[C@H](C)C2)cc(C(=O)Nc2nc(C)cs2)n1"
assay_readout = "Efficacy"
endpoint_result = 1.2

[[record]]
compound = "Cc1cc(OCC2CCCO2)cc(C(=O)Nc2ccc(F)cn2)n1 (configuration not stated)"
assay_readout = "Efficacy"
endpoint_result = -0.9

[[record]]
compound = "Cc1cc(O[C@@H]2CCOC2)cc(C(=O)Nc2nc(C)cs2)n1"
assay_readout = "Efficacy"
endpoint_result = 1.3

[[record]]
compound = "Cc1cc(OC2CCCC2)cc(C(=O)Nc2nc(C)cs2)n1"
assay_readout = "Efficacy"
endpoint_result = 1.5

[[record]]
compound = "Cc1cc(O[C@@H]2CCOC2)cc(C(=O)Nc2ccc(F)cn2)n1"
assay_readout = "Efficacy"
endpoint_result = 1.7

[[record]]
compound = "Cc1cc(O[C@H]2CO[C@H](C)C2)cc(C(=O)Nc2nc(CF)cs2)n1"
assay_readout = "Efficacy"
endpoint_result = 1.1

[[record]]
compound = "Cc1cc(OC2COC2)cc(C(=O)Nc2ccccn2)n1"
assay_readout = "Efficacy"
endpoint_result = 1.3

[[record]]
compound = "Cc1cc(OCC2COC2)cc(C(=O)Nc2ccccn2)n1"
assay_readout = "Efficacy"
endpoint_result = 0.8

[[record]]
compound = "Cc1cc(OC2CCCCC2)cc(C(=O)Nc2nc(C)cs2)n1"
assay_readout = "Efficacy"
endpoint_result = 1.9

[[record]]
compound = "Cc1cc(OC2CCCCC2)cc(C(=O)Nc2ccc(F)cn2)n1"
assay_readout = "Efficacy"
endpoint_result = 10.4

